molecular target: recombinant H1N1 neuraminidase (Influenza A virus (strain A/Puerto Rico/8/1934 H1N1), UniProt P03468); experiment: biochemical
Sequence (P03468 36-454 limits assumed): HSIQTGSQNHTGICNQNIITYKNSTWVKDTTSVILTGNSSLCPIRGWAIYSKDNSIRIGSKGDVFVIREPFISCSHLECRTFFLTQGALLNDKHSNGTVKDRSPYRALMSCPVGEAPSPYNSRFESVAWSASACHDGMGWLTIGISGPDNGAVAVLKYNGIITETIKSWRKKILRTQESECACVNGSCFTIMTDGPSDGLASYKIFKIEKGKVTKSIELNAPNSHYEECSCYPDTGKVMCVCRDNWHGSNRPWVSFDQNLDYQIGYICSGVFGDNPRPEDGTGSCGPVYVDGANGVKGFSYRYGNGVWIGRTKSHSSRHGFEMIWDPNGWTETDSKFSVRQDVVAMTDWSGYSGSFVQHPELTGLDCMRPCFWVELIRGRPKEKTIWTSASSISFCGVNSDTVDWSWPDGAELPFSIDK
Test Readout: IC50 (mM)

C[C@@H]1C[C@](O)(C(=O)O)[C@H]2CCS(=O)(=O)[C@@H]12 [Compound 20] : 4

* * *

target: neuraminidase of NP40-inactivated influenza A/Brisbane/59/2007(H1N1) (Influenza A virus, UniProt D5F1R0); experiment: In vitro neuraminidase assay vs. NP40-inactivated influenza virus; assay type: biochemical; settings: IC50
Sequence (D5F1R0 1-470): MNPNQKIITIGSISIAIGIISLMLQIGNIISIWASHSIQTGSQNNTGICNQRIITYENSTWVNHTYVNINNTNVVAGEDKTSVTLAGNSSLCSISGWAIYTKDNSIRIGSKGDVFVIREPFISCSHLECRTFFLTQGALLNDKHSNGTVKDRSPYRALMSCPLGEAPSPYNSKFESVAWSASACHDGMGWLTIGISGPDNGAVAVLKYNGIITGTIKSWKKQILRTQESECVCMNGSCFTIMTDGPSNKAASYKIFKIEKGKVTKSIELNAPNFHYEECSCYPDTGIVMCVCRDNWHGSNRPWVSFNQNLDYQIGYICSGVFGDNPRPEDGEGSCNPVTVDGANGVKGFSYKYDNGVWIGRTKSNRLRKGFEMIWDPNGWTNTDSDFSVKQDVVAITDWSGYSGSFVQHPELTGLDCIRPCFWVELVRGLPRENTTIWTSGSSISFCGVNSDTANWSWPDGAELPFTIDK
pIC50: −log10 of the molar value.
Test Readout: pIC50

CC(=O)N[C@H]1CS(=O)(=O)[C@H]2[C@@H]1[C@H](NC(=N)N)C[C@@H]2C(=O)O : 4.52

* * *

target: neuraminidase of NP40-inactivated influenza A/Brisbane/59/2007(H1N1) (Influenza A virus, UniProt D5F1R0); experiment: In vitro neuraminidase assay vs. NP40-inactivated influenza virus; type: biochemical
Test Readout: Ki (µM)

CC(=O)N[C@H]1CS(=O)(=O)[C@H]2[C@@H]1[C@H](NC(=N)N)C[C@@H]2C(=O)O : 5

* * *

target: neuraminidase of NP40-inactivated influenza A/Brisbane/59/2007(H1N1) (Influenza A virus); experiment: In vitro neuraminidase assay vs. NP40-inactivated influenza virus; format: biochemical; conditions: NP40-inactivated virus; estimated from Km versus inhibitor concentration; read-out: Ki
pKi: −log10 of the molar value.
Test Readout: pKi

N=C(N)N[C@@H]1C[C@](O)(C(=O)O)[C@H]2CCS(=O)(=O)[C@@H]12 [Compound 27] : 3.00
